The following compounds are shown together with reported IC50 values.
Biological target: human Nav1.7 (Homo sapiens (Human), UniProt Q15858)
Sequence (Q15858 other isoform, or with tags, fused parts or gaps): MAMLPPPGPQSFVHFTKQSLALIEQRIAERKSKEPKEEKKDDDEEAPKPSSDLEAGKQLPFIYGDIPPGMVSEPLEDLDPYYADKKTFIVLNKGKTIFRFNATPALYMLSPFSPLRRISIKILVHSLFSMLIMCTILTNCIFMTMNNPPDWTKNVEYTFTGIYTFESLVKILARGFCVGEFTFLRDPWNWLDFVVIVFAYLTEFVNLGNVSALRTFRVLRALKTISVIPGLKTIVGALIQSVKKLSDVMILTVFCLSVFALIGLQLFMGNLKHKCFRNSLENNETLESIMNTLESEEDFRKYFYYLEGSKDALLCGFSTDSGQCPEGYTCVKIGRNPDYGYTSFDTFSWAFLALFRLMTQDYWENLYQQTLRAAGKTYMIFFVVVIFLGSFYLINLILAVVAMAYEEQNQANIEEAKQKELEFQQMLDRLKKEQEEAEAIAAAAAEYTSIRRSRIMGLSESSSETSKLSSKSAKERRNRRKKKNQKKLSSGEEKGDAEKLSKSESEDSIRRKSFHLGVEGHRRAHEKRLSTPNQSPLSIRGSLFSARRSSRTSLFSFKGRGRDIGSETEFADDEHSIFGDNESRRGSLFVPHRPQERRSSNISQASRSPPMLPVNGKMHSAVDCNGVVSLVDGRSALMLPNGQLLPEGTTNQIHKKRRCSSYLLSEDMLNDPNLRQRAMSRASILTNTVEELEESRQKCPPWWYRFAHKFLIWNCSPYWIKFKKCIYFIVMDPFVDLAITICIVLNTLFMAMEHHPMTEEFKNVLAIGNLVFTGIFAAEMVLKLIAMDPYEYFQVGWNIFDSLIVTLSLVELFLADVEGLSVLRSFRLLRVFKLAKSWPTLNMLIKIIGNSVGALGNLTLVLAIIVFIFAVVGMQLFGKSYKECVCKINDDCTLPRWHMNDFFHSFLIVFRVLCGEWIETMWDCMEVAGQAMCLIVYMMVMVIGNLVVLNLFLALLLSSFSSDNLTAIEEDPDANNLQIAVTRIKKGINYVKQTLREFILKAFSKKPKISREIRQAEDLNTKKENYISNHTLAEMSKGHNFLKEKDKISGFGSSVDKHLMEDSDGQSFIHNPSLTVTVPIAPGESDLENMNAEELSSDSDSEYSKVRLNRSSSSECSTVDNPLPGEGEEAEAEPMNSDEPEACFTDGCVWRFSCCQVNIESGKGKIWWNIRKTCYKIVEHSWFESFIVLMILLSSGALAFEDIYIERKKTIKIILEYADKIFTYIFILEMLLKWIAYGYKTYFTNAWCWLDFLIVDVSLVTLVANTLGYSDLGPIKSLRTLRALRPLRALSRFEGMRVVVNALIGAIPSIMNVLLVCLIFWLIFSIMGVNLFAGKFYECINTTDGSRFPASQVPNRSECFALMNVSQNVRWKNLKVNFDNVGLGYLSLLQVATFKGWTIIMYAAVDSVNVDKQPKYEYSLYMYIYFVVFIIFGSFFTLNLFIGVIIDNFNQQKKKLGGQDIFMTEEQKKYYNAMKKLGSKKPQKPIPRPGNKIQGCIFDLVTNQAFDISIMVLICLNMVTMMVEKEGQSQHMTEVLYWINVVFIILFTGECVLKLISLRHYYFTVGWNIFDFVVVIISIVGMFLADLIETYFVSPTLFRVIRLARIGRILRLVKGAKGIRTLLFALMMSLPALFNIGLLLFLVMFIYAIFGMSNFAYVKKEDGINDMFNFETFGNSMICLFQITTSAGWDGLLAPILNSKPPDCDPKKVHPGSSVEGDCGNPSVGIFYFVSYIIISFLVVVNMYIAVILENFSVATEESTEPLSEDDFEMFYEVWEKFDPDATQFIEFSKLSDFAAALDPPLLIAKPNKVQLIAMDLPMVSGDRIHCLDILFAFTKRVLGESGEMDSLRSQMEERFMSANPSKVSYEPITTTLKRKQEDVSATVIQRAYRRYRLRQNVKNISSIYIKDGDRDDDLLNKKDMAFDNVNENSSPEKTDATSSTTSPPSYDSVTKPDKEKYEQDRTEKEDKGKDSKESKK
Assay: FLIPR or FLIPR TETRA sodium dye assay with KCl and test article pre-incubation
Assay type: cell-based
Conditions: read-out: Nav1.7 IC50 (μM) ± SEM
Your answer is read as µM, so omit the unit and give the number.

Provide value of IC50 for this record tested with human Nav1.7 (Homo sapiens (Human), UniProt Q15858): N#Cc1ccc(Oc2ccc(-c3cc([C@@H](O)CO)cc(C(N)=O)n3)cc2)c(C(F)(F)F)c1
0.22

Provide value of IC50 for this record tested with human Nav1.7 (Homo sapiens (Human), UniProt Q15858): Cc1cc(C(=O)NCCN2CCCCC2)cc(-c2ccc(Oc3ccc(F)cc3)cc2)n1
0.4

Next:
Provide value of IC50 for this record tested with human Nav1.7 (Homo sapiens (Human), UniProt Q15858): N#Cc1ccc(Oc2ccc(-c3cccc([C@@H](O)CO)n3)cc2)c(C(F)(F)F)c1
0.82

Provide value of IC50 for this record tested with human Nav1.7 (Homo sapiens (Human), UniProt Q15858): N#CCCN(c1ccccc1)c1cc(C(=O)O)nc(-c2ccc(Oc3ccc(F)cc3)cc2)c1
2.5

* * *

Target: human Nav1.7 (Homo sapiens (Human))
Assay: FLIPR or FLIPR TETRA sodium dye assay with KCl and test article pre-incubation
Type: cell-based
Conditions: recombinant human Nav1.7 in HEK293 cells; CoroNa Green sodium dye; veratridine + scorpion venom; read-out: Nav1.7 IC50 (μM) ± SEM
RESULT_TYPE: IC50 (µM)
Your answer is read as µM, so omit the unit and give the number.

Would you please look over these solved cases?
Given the entry O=C(NCCN1CCCCC1)c1cc(CO)cc(-c2ccc(Oc3ccc(F)cc3)cc2)n1 [compound 79] , report its measured IC50.
0.41

Given the entry NC(=O)c1cc(-c2ccc(Oc3ccc(OC(F)(F)F)cc3)cc2)cc([C@@H](O)CO)n1 [compound 157] , report its measured IC50.
0.12

Given the entry O=C(O)c1ccc2ccn(-c3cc(C(=O)O)nc(-c4ccc(Oc5ccc(F)cc5)cc4)c3)c2c1 [compound 130] , report its measured IC50.
2.47

Given the entry NC(=O)CN1CCN(c2cc(Cl)nc(-c3ccc(Oc4ccc(F)cc4)cc3)c2)CC1 [compound 109] , report its measured IC50.
3.77

Given the entry NC(=O)c1cc([C@H](O)CO)cc(-c2ccc(-c3ccc(F)cc3)cc2)n1 [compound 154] , report its measured IC50.
1.12

Next:
Given the entry CC(C)NC(=O)N1CCN(c2cc(-c3ccc(Oc4ccc(F)cc4)cc3)nc([C@@H](O)CO)c2)CC1 [compound 7] , report its measured IC50.
0.32

Given the entry NC(=O)CN(CCN1CCNC1=O)Cc1cccc(-c2ccc(Oc3ccc(F)cc3)cc2)n1 [compound 72] , report its measured IC50.
0.76

Given the entry NC(=O)c1cc(NCc2cccnc2)cc(-c2ccc(Oc3ccc(F)cc3)cc2)n1 [compound 45] , report its measured IC50.
0.15

Given the entry CC(C)NC(=O)N1CCN(c2cc(C(N)=O)nc(-c3ccc(Oc4ccc(F)cc4)cc3)c2)CC1 [compound 73] , report its measured IC50.
0.09

* * *

Target: human Nav1.7 (Homo sapiens (Human))
Experiment: FLIPR or FLIPR TETRA sodium dye assay with KCl and test article pre-incubation
Format: cell-based
Details: recombinant human Nav1.7 in HEK293 cells; CoroNa Green sodium dye; veratridine + scorpion venom; read-out: Nav1.7 IC50 (μM) ± SEM
RESULT_TYPE: IC50 (µM)
Your answer is read as µM, so omit the unit and give the number.

Would you please look over these solved cases?
Given the entry N#Cc1cc([C@H](O)CO)cc(-c2ccc(Oc3ccc(F)cc3)cc2)n1 , report its measured IC50.
2.12

Given the entry NC(=O)c1cc(NCc2ccccn2)cc(-c2ccc(Oc3ccc(F)cc3)cc2)n1 , report its measured IC50.
0.22

Given the entry NC(=O)c1cc(-c2ccc(Oc3ccc(OC(F)(F)F)cc3)cc2)cc([C@H](O)CO)n1 , report its measured IC50.
0.13

Given the entry O=C1NCCN1CCNCc1cccc(-c2ccc(Oc3ccc(C(F)(F)F)cc3)cc2)n1 , report its measured IC50.
0.03

Given the entry NC(=O)c1cc(C[C@@H](O)CO)cc(-c2ccc(Oc3ccc(F)cc3)cc2)n1 , report its measured IC50.
3.9

Next:
Given the entry CS(=O)(=O)NCc1cc(C(N)=O)nc(-c2ccc(Oc3ccc(F)cc3)cc2)c1 , report its measured IC50.
0.14

Given the entry N#Cc1cc(Oc2ccc(-c3cc([C@H](O)CO)cc(C(N)=O)n3)cc2)ccc1C(F)(F)F , report its measured IC50.
0.5

* * *

Biological target: human Nav1.7 (Homo sapiens (Human), UniProt Q15858)
Assay: FLIPR or FLIPR TETRA sodium dye assay with KCl and test article pre-incubation
Assay type: cell-based
Conditions: read-out: Nav1.7 IC50 (μM) ± SEM
The following compounds are shown together with reported log10 IC50 values.
Hello, just confirming the data are log10 of IC50 with units of µM.

Would you please look over these solved cases?
Given the entry N#Cc1cc(Oc2ccc(-c3cccc([C@@H](O)CO)n3)cc2)ccc1C(F)(F)F [compound 14] , report its measured log10 IC50.
0.11

Given the entry N#Cc1cc(Oc2ccc(-c3cccc(CNCCN4CCNC4=O)n3)cc2)ccc1C(F)(F)F [compound 70] , report its measured log10 IC50.
-0.64

Given the entry N#Cc1ccc(Oc2ccc(-c3cc([C@H](O)CO)cc(C(N)=O)n3)cc2)cc1C(F)(F)F [compound 31] , report its measured log10 IC50.
-0.21

Given the entry N#CCCN(c1ccccc1)c1cc(C(N)=O)nc(-c2ccc(Oc3ccc(F)cc3)cc2)c1 [compound 44] , report its measured log10 IC50.
0.52

Next:
Given the entry N#Cc1ccc(Oc2ccc(-c3cccc(C(O)CO)n3)cc2)c(C(F)(F)F)c1 (centres unmarked) [compound 9] , report its measured log10 IC50.
-0.30

Given the entry N#Cc1ccc(Oc2ccc(-c3cccc([C@@H](O)CO)n3)cc2)cc1 [compound 13] , report its measured log10 IC50.
-0.05

Given the entry OC[C@H](O)c1cc(NCCN2CCOCC2)cc(-c2ccc(Oc3ccc(F)cc3)cc2)n1 [compound 111] , report its measured log10 IC50.
-0.15

Given the entry OCC(O)c1cccc(-c2ccc(Oc3ccc(C(F)(F)F)cc3)cc2)n1 (centres unmarked) [compound 3] , report its measured log10 IC50.
-1.15

* * *

Molecular target: human Nav1.7 (Homo sapiens (Human), UniProt Q15858)
Assay: FLIPR or FLIPR TETRA sodium dye assay with KCl and test article pre-incubation
Type: cell-based
Conditions: recombinant human Nav1.7 in HEK293 cells; CoroNa Green sodium dye; veratridine + scorpion venom; read-out: Nav1.7 IC50 (μM) ± SEM
The following compounds are shown together with reported IC50 values.
Your answer is read as µM, so omit the unit and give the number.

Would you please look over these solved cases?
Provide value of IC50 for this record tested with human Nav1.7 (Homo sapiens (Human), UniProt Q15858): N#Cc1cc(C(F)(F)F)ccc1Oc1ccc(-c2cccc(C(O)CO)n2)cc1 (centres unmarked) [compound 10]
0.52

Provide value of IC50 for this record tested with human Nav1.7 (Homo sapiens (Human), UniProt Q15858): NC(=O)c1cc(N2CCN(C(N)=O)CC2)cc(-c2ccc(Oc3ccc(F)cc3)cc2)n1 [compound 76]
0.53

Provide value of IC50 for this record tested with human Nav1.7 (Homo sapiens (Human), UniProt Q15858): NC(=O)c1cc(NCCN2CCOCC2)cc(-c2ccc(Oc3ccc(F)cc3)cc2)n1 [compound 53]
0.22

Provide value of IC50 for this record tested with human Nav1.7 (Homo sapiens (Human), UniProt Q15858): C[C@@H](O)[C@H](O)c1cc(C(N)=O)nc(-c2ccc(Oc3ccc(F)cc3)cc2)c1 [compound 131]
2.78

Provide value of IC50 for this record tested with human Nav1.7 (Homo sapiens (Human), UniProt Q15858): NC(=O)c1cc(CN2CCN(CC(=O)O)CC2)cc(-c2ccc(Oc3ccc(F)cc3)cc2)n1 [compound 104]
2.7

Provide value of IC50 for this record tested with human Nav1.7 (Homo sapiens (Human), UniProt Q15858): NC(=O)c1cc([C@H](O)CO)cc(-c2ccc(Oc3ccc(Cl)cc3F)cc2)n1 [compound 140]
0.07

Next:
Provide value of IC50 for this record tested with human Nav1.7 (Homo sapiens (Human), UniProt Q15858): OCC(O)c1cccc(-c2ccc(Oc3ccc(C(F)(F)F)cn3)cc2)n1 (centres unmarked) [compound 16]
1.71

Provide value of IC50 for this record tested with human Nav1.7 (Homo sapiens (Human), UniProt Q15858): CC(=O)c1ccc(Oc2ccc(-c3cccc(C(O)CO)n3)cc2)c(C(F)(F)F)c1 (centres unmarked) [compound 20]
2.95

Provide value of IC50 for this record tested with human Nav1.7 (Homo sapiens (Human), UniProt Q15858): NC(=O)c1cc([C@H](O)CO)cc(-c2ccc(Oc3ccc(C(F)(F)F)cc3)cc2)n1 [compound 30]
0.24

Provide value of IC50 for this record tested with human Nav1.7 (Homo sapiens (Human), UniProt Q15858): NC(=O)c1cc(CNCCN2CCNC2=O)cc(-c2ccc(Oc3ccc(F)cc3)cc2)n1 [compound 60]
0.16

Every entry's value here was drawn from patent US9056832B2.
